Test system: normal NK cells expanded with K562-aAPC
Test: percent inhibition of viability; higher = more inhibition
Conditions: 72 h; IL-2 2.5 ng/mL; 25 nM
Recorded percent inhibition of viability for the following compounds
PROPERTY_NAME: percent inhibition of viability (%)

>>> observed("Cc1cc([C@@H](C)Nc2ccccc2C(=O)O)c2nc(N3CCOCC3)cc(=O)n2c1 [AZD-6482] (max concentration tested 2500 nM)")
0.58
>>> observed("C[C@@H]1CN(CC(=O)Nc2ccc3c(c2)Cc2cccc(-c4cc(=O)cc(N5CCOCC5)o4)c2S3)C[C@H](C)O1 (max concentration tested 25000 nM)")
-9.66
>>> observed("CC(C)(C)c1nc(-c2cccc(NS(=O)(=O)c3c(F)cccc3F)c2F)c(-c2ccnc(N)n2)s1 [Dabrafenib] (max concentration tested 2500 nM)")
-8.95
>>> observed("COc1ccc(Cl)c(Nc2nc3ccccc3nc2NS(=O)(=O)c2cccc(NC(=O)C(C)(C)N)c2)c1 [Pilaralisib] (max concentration tested 2500 nM)")
-4.45
>>> observed("CN[C@@H](C)C(=O)N[C@H](C(=O)N1CCC[C@H]1c1nc(C(=O)c2ccc(F)cc2)cs1)C1CCCCC1 [LCL161] (max concentration tested 25000 nM)")
9.45

---

Tested on: SNK-6 (IL-2 2.5 ng/mL);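 note: normalised to DMSO-only wells as negative and benzethonium chloride as positive control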
Experiment: percent inhibition of viability; higher = more inhibition
Conditions: 72 h; 1 nM
Listing: percent inhibition of viability of selected compounds
PROPERTY_NAME: percent inhibition of viability (%)

>>> observed("Cc1cccc(-c2nn3c(c2-c2ccnc4ccc(C(N)=O)cc24)CCC3)n1 [Galunisertib] (max concentration tested 1000 nM)")
20.7
>>> observed("CC1(C)NC(=O)N(c2ccc([N+](=O)[O-])c(C(F)(F)F)c2)C1=O [Nilutamide] (max concentration tested 10000 nM)")
33.2
>>> observed("CC1(COc2ccc3c(c2)ncn3-c2ccc3cccc(N4CCC(N)CC4)c3n2)COC1 [Crenolanib] (max concentration tested 10000 nM)")
21.7

---

Form field: percent inhibition of viability (one value per entry).
Test system: SNK-6 (IL-2 2.5 ng/mL);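 note: normalised to DMSO-only wells as negative and benzethonium chloride as positive control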
Experiment: percent inhibition of viability; higher = more inhibition
Conditions: 72 h; 1000 nM
PROPERTY_NAME: percent inhibition of viability (%)

>>> observed("C[C@]12CC[C@@H]3c4ccc(O)cc4C[C@@H](CCCCCCCCC[S+]([O-])CCCC(F)(F)C(F)(F)F)[C@H]3[C@@H]1CC[C@@H]2O (stereo partly specified) [Fulvestrant] (max concentration tested 1000 nM)")
-13.9
>>> observed("NC(=S)N/N=C/c1ncccc1N [Triapine] (max concentration tested 10000 nM)")
-6.98
>>> observed("Cc1ccc(-n2nc(C(C)(C)C)cc2NC(=O)Nc2ccc(OCCN3CCOCC3)c3ccccc23)cc1 [Doramapimod] (max concentration tested 10000 nM)")
-39.3
>>> observed("CC(C)n1cnc2c(NCCc3ccc(O)cc3)nc(-c3csc4ccccc34)nc21 [StemRegenin 1] (max concentration tested 10000 nM)")
-12.5
>>> observed("CN(C)CCN1C(=O)c2cccc3cc(N)cc(c23)C1=O [Amonafide] (max concentration tested 10000 nM)")
23.6
>>> observed("Cc1cc(Nc2nc(N[C@@H](C)c3ncc(F)cn3)ncc2Cl)[nH]n1 [AZD1480] (max concentration tested 1000 nM)")
96.2
